target: TYK2 (Homo sapiens, UniProt P29597); construct: endogenous in cells; host or cells: Molt4 (ATCC CRL-1582) and Ramos (ATCC CRL-1596), mixed lysate 1:2; assay: Kinobeads assay, TYK2 (competition binding in mixed Molt4/Ramos cell lysate, dot blot detection); details: Kinobeads assay, Molt4/Ramos lysate; read-out: TYK2 Band (Kinobeads assay potency, IC50)
Sequence (P29597 whole entry): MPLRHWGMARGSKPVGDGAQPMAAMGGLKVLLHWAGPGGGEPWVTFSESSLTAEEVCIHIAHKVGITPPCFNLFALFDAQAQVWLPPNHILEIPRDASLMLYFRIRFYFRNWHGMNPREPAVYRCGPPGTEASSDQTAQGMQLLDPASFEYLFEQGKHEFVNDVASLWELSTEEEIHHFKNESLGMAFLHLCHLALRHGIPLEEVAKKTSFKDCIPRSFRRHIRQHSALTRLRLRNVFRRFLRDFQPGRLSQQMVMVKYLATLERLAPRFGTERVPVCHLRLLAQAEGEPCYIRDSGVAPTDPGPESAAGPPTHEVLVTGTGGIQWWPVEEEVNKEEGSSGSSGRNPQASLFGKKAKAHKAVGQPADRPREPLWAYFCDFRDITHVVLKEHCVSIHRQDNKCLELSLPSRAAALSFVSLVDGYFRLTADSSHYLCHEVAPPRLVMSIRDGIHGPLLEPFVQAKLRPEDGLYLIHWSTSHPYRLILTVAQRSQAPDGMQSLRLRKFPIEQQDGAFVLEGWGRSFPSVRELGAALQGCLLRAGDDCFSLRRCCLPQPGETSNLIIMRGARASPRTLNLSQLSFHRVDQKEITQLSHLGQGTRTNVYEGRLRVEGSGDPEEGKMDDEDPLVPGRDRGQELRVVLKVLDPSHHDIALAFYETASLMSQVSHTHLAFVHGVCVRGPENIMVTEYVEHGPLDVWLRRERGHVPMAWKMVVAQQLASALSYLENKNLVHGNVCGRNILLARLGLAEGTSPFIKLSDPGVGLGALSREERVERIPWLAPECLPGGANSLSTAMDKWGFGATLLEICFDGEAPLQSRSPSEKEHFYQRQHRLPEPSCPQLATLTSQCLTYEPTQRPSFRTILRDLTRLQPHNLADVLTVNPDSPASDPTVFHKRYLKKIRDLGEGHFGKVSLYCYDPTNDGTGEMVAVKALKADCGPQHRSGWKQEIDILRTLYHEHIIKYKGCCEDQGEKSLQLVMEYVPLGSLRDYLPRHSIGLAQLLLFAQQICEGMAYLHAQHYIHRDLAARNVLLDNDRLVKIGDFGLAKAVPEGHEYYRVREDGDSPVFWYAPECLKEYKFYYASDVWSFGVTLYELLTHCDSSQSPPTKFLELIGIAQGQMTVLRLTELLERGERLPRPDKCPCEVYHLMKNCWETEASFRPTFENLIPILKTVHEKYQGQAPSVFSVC
pIC50: −log10 of the molar value.
measure: pIC50

Some molecules with recorded pIC50:
COc1ccc(Cl)c(CNc2nc(Nc3cnn(CC(=O)NC(C)C)c3)ncc2F)c1F; ≥ 8.00
Cn1cc(Nc2ncc(Cl)c(NCc3ccccc3F)n2)cn1; 6.00 to 7.00
O=C(Cn1cc(Nc2nccc(NCc3c(F)cc(F)cc3F)n2)cn1)NC1CCOC1 (centres unmarked); 7.00 to 8.00
OCCn1cc(Nc2ncc(Cl)c(NCc3ccc(C(F)(F)F)cc3F)n2)cn1; 5.00 to 6.00
NS(=O)(=O)c1ccc(CNc2nc(Nc3cnn(CC(=O)N4CCOCC4)c3)ncc2F)cc1; 7.00 to 8.00

Inquiry: Which measured pIC50 value corresponds to COc1ccc(F)c(CNc2ccnc(Nc3cnn(CC(=O)NCCF)c3)n2)c1F ?
Reply text: 7.00 to 8.00

Inquiry: Which measured pIC50 value corresponds to O=C(Cn1cc(Nc2ncc(F)c(NCc3cc(F)cc(C(F)(F)F)c3)n2)cn1)N1CCOCC1 ?
Reply text: 6.00 to 7.00

Inquiry: Which measured pIC50 value corresponds to Cn1cc(Cn2cc(Nc3ncc(Cl)c(NCc4c(F)cccc4F)n3)cn2)cn1 ?
Reply text: 6.00 to 7.00
